The reported measurements were obtained from ChEMBL document CHEMBL1201862.

- Test system: UO-31
- experiment: NCI tumour cell line growth inhibition, 48 h
Active and inactive are the calls of the source. Cut-off read from the data, not from the text of the source: active = GI50 up to about 1.1 µM and inactive = higher.
Write down the outcome that applies. Available outcomes: YES = active, NO = inactive

Inquiry: Outcome logged for Cc1cc(C)c(-c2noc(-c3ccc(Cl)cc3)c2C2=NCCCN2)c(C)c1 in this assay:
Reply text: NO

Inquiry: Now consider CC[C@]1(Cc2ccc(OC)c(OC)c2)[C@@H]2C[C@@H](C3OCCO3)ON2O[C@H](OC2CCCC2(c2ccccc2)c2ccccc2)[C@@H]1OC(C)=O (stereo not given in full) .
Reply text: NO

Inquiry: Okay, and CN(C)CCNC(=O)c1cccc2c(=O)c3ccccc3oc12 ?
Reply text: NO

Inquiry: Note, next up: CCOC(=O)C(CCC(N)=O)(CCC(=O)OC)C(=O)OCC
Reply text: NO

Inquiry: Note, next up: C/C1=C/C2OC(=O)C3(C)C2C(CC2(C)OC1=CC2=O)OC3(O)C(C)C (stereo not given)
Reply text: NO

Inquiry: Param item: O=C1Cc2c([nH]c3ccc([N+](=O)[O-])cc23)-c2ccccc2N1
Reply text: YES

Inquiry: Can you check COc1ccc2cc(CN3CCC(C4CCNCC4)CC3)ccc2c1 next?
Reply text: NO

Inquiry: What do you get for O=c1c2cc(Br)ccc2[nH]c(=S)n1-c1ccccc1 ?
Reply text: NO

Inquiry: // query: Cc1cccc(C(C)C)c1NC(=O)C(=O)C(C(=O)c1ccccc1F)C1OC(=O)c2ccccc21 (stereo not given)
Reply text: NO

Inquiry: Param item: Cc1sc2nc3n(sc4nc5sc(C)c(C)c5c(=O)n43)c(=O)c2c1C
Reply text: NO
